inhibition at 100 µM overview
target: AM2 S31 (wild-type serine at position 31 in the M2 protein), influenza virus A/Udorn/72 (Influenza A virus); test: cell-based; settings: 100 uM; Xenopus oocytes; activity range class; read-out: S31 OOcyte Inhibition at 100 uM (%)

[[record]]
compound = "O=[N+]([O-])c1ccc(CNC23CC4CC(CC(C4)C2)C3)s1 [Example 100a]"
readout_value = "31 to 95%"

[[record]]
compound = "Oc1cccc2ccc(CNC34CC5CC(CC(C5)C3)C4)nc12 [Example 65a]"
readout_value = "31 to 95%"

[[record]]
compound = "c1csc(-c2noc(CNC34CC5CC(CC(C5)C3)C4)n2)c1 [Example 148a]"
readout_value = "0 to 30%"

[[record]]
compound = "c1cc(-c2csc(CNC34CC5CC(CC(C5)C3)C4)c2)cs1 [Example 152a]"
readout_value = "0 to 30%"

[[record]]
compound = "Brc1ncc(CNC23CC4CC(CC(C4)C2)C3)cn1 [Example 57a]"
readout_value = "0 to 30%"


# query: inhibition at 100 µM of entry CC(C)(C)c1nc(CNC23CC4CC(CC(C4)C2)C3)no1 [Example 103a]
0 to 30%

Check Oc1ccc2[nH]c(CNC34CC5CC(CC(C5)C3)C4)cc2c1 [Example 179a] too.
0 to 30%

Check Cc1ccc(C(C)NC23CC4CC(CC(C4)C2)C3)s1 (stereo not shown) [Example 97a] too.
0 to 30%

Check Cc1ccsc1CNC12CC3CC(CC(C3)C1)C2 [Example 76a] too.
31 to 95%

Check Brc1ccc(CNC23CC4CC(CC(C4)C2)C3)s1 [Example 81a] too.
31 to 95%

###

molecular target: AM2 S31 (wild-type serine at position 31 in the M2 protein), influenza virus A/Udorn/72 (Influenza A virus); assay: cell-based; conditions: Table 1; 100 uM; Xenopus oocytes, pH 5.5, -20 mV; read-out: S31 OOcyte Inhibition at 100 uM (%)
inhibition at 100 µM overview

# example entries with known answers
[[record]]
compound = "COc1cc(F)c(CNC23CC4CC(CC(C4)C2)C3)c(F)c1 [Example 67]"
assay_metric = "inhibition at 100 µM"
readout_value = "31 to 95%"

[[record]]
compound = "Oc1c(F)cc(CNC23CC4CC(CC(C4)C2)C3)cc1Cl [Example 68]"
assay_metric = "inhibition at 100 µM"
readout_value = "31 to 95%"

[[record]]
compound = "N#Cc1ccc(CNC23CC4CC(CC(C4)C2)C3)cc1 [Example 14]"
assay_metric = "inhibition at 100 µM"
readout_value = "31 to 95%"


Consider the additional compound presented here.
# query: inhibition at 100 µM of entry c1cc2cc(CNC34CC5CC(CC(C5)C3)C4)[nH]c2s1 [Example 82]
31 to 95%

###

target: AM2 S31 (wild-type serine at position 31 in the M2 protein), influenza virus A/Udorn/72 (Influenza A virus, UniProt P0DOF5); experiment: cell-based; conditions: Table 1; 100 uM; Xenopus oocytes, pH 5.5, -20 mV; read-out: S31 OOcyte Inhibition at 100 uM (%)
Sequence (P0DOF5 whole entry, looked up): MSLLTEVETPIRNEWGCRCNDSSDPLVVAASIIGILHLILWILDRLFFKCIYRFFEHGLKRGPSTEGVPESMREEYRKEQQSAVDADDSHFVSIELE
inhibition at 100 µM overview

# example entries with known answers
[[record]]
compound = "COc1ccc(CNC23CC4CC(CC(C4)C2)C3)cc1O [Example 61]"
assay_metric = "inhibition at 100 µM"
readout_value = "31 to 95%"

[[record]]
compound = "OCc1ccc(CNC23CC4CC(CC(C4)C2)C3)o1 [Example 77]"
assay_metric = "inhibition at 100 µM"
readout_value = "0 to 30%"


Consider the additional compound presented here.
# query: inhibition at 100 µM of entry Oc1ccc(CNC2C3CC4CC(C3)CC2C4)cc1 (centres unmarked) [Example 99, 4-(Adamantan-2-ylaminomethyl)-phenol]
31 to 95%

###

inhibition at 100 µM overview
biological target: AM2 S31 (wild-type serine at position 31 in the M2 protein), influenza virus A/Udorn/72 (Influenza A virus); assay: cell-based; details: 100 uM; Xenopus oocytes; activity range class; read-out: S31 OOcyte Inhibition at 100 uM (%)

# example entries with known answers
[[record]]
compound = "c1coc(-c2ccc(CNC34CC5CC(CC(C5)C3)C4)cc2)c1 [Example 31a]"
assay_metric = "inhibition at 100 µM"
readout_value = "0 to 30%"

[[record]]
compound = "c1cc(-c2cc(CNC34CC5CC(CC(C5)C3)C4)no2)cs1 [Example 150a]"
assay_metric = "inhibition at 100 µM"
readout_value = "0 to 30%"

[[record]]
compound = "CC(NC12CC3CC(CC(C3)C1)C2)c1cc2ccccc2s1 (stereo not shown) [Example 178a]"
assay_metric = "inhibition at 100 µM"
readout_value = "31 to 95%"


# query: inhibition at 100 µM of entry c1csc(-c2cc(CNC34CC5CC(CC(C5)C3)C4)no2)c1 [Example 142a]
0 to 30%

Check OC12CC3CC(C1)CC(NCc1ccc(Br)s1)(C3)C2 [Example 188a] too.
0 to 30%

Check c1cc(CNC23CC4CC(CC(C4)C2)C3)cs1 [Example 68a, Adamantan-1-yl-thiophen-3-ylmethyl-amine] too.
31 to 95%

Check c1cc(C2CC2)sc1CNC12CC3CC(CC(C3)C1)C2 [Example 108a] too.
0 to 30%

Check c1ccc(-c2nc(CNC34CC5CC(CC(C5)C3)C4)cs2)cc1 [Example 132a] too.
0 to 30%

Check OCc1cc(Br)ccc1CNC12CC3CC(CC(C3)C1)C2 [Example 52a] too.
0 to 30%

Check OC12CC3CC(C1)CC(NCc1cc4cc(Br)sc4s1)(C3)C2 [Example 195a] too.
0 to 30%

Check c1csc(-c2ccc(-c3ccc(CNC45CC6CC(CC(C6)C4)C5)s3)s2)c1 [Example 157a] too.
0 to 30%

Check CC(C)(C)c1ccc(CNC23CC4CC(CC(C4)C2)C3)cc1 [Example 7a, methanesulfonate] too.
0 to 30%

Check Brc1ccc(-c2ccc(CNC34CC5CC(CC(C5)C3)C4)s2)s1 [Example 159a] too.
0 to 30%

Check Oc1cc(-c2cccs2)ccc1CNC12CC3CC(CC(C3)C1)C2 [Example 49a] too.
0 to 30%

###

inhibition at 100 µM overview
target: AM2 S31 (wild-type serine at position 31 in the M2 protein), influenza virus A/Udorn/72 (Influenza A virus); assay: cell-based; settings: 100 uM; Xenopus oocytes; activity range class; read-out: S31 OOcyte Inhibition at 100 uM (%)

# example entries with known answers
[[record]]
compound = "Clc1ccc(CNC23CC4CC(CC(C4)C2)C3)s1 [Example 79a]"
readout_value = "31 to 95%"

[[record]]
compound = "Cc1ccc(CNC23CC4CC(CC(C4)C2)C3)c(O)c1 [Example 51a]"
readout_value = "31 to 95%"


Consider the additional compound presented here.
# query: inhibition at 100 µM of entry c1csc(C2=NOC(CNC34CC5CC(CC(C5)C3)C4)C2)c1 (stereo not drawn) [Example 168a]
0 to 30%

###

molecular target: AM2 S31 (wild-type serine at position 31 in the M2 protein), influenza virus A/Udorn/72 (Influenza A virus); test: cell-based; details: Table 1; 100 uM; Xenopus oocytes, pH 5.5, -20 mV; read-out: S31 OOcyte Inhibition at 100 uM (%)
inhibition at 100 µM overview

# example entries with known answers
[[record]]
molecule = "CSc1ccc(CNC23CC4CC(CC(C4)C2)C3)cc1"
readout_value = "0 to 30%"

[[record]]
molecule = "CC(NCc1ccc(O)cc1)C12CC3CC(CC(C3)C1)C2 (stereo not drawn)"
readout_value = "31 to 95%"

[[record]]
molecule = "CC(=O)Oc1ccc(CNC23CC4CC(CC(C4)C2)C3)c(O)c1"
readout_value = "31 to 95%"


# query: inhibition at 100 µM of entry Oc1ccc(CNC23CC4CCC(CC(C4)C2)C3)c(O)c1
31 to 95%

Check NC(=O)c1ccc(CNC23CC4CC(CC(C4)C2)C3)cc1 [Example 18, 4-(Adamantan-1-ylaminomethyl)-benzamide] too.
0 to 30%

Check Nc1ccc(CNC23CC4CC(CC(C4)C2)C3)cc1 too.
31 to 95%

Check FC(F)(F)Sc1ccc(CNC23CC4CC(CC(C4)C2)C3)cc1 too.
0 to 30%

Check Fc1ccc(CNC23CC4CC(CC(C4)C2)C3)cc1 too.
31 to 95%

Check Oc1ccc(CNC2C3CC4CC(C3)CC2C4)cc1O (stereo not drawn) too.
31 to 95%

Check c1c(CNC2C3CC4CC(C3)CC2C4)nc2n1CCS2 (stereo not drawn) too.
31 to 95%

Check CC1(C)C2CCC(CNCc3ccc(O)cc3O)C1C2 (stereo not drawn) too.
31 to 95%

Check Brc1ccc(CNC23CC4CC(CC(C4)C2)C3)cc1 too.
31 to 95%

Check CC(=O)Nc1ccc(CNC23CC4CC(CC(C4)C2)C3)cc1 too.
0 to 30%

Check Oc1ccc(/C=N/C23CC4CC(CC(C4)C2)C3)c(O)c1 too.
31 to 95%

Check CS(=O)(=O)c1ccc(CNC23CC4CC(CC(C4)C2)C3)cc1 too.
31 to 95%

Check c1cn2cc(CNC3C4CC5CC(C4)CC3C5)nc2s1 (stereo not drawn) too.
31 to 95%

Check C[Si](C)(C)CCCNCc1ccc(O)cc1O too.
31 to 95%

Check c1cc2cc(CNC34CC5CC(CC(C5)C3)C4)sc2s1 too.
31 to 95%

Check CC(=O)c1sccc1-c1ccc(CNC23CC4CC(CC(C4)C2)C3)cc1 too.
0 to 30%

Check O=C(Oc1ccc(CNC23CC4CC(CC(C4)C2)C3)cc1)C1CC1 too.
0 to 30%

Check c1c(CNC23CC4CC(CC(C4)C2)C3)sc2c1CSC2 too.
31 to 95%

// provenance: patent US9884832B2
